- Tested on: Tau phosphorylation at Ser396 (pSer396)
- measurementNotes: Tau phosphorylation assay (pSer396 ELISA / western blot) in SH-SY5Y cells;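 also: EC50 for reduction of Tau pSer396 in lysed cells, measured by colorimetric ELISA or chemiluminescent western blot, both using the same pSer396 antibody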
- Assay type: cell-based, human
- conditionNotes: Homo sapiens; SH-SY5Y cells, overnight (16-18 h) exposure; read-out: pSer396 Tau EC50
pEC50: −log10 of the molar value.
Binary call on pEC50: Met from 6 upward, Not met beneath that.

Answered examples (8):
Could you verify whether the entry Cn1cc(-c2ccc3cnc(NC(=O)C4CCN(CC5(C(F)(F)F)CC5)CC4)cc3c2)nn1 [Compound 470] shows pEC50 of no less than 6?
Met

I'd appreciate it if you could say whether CO[C@H]1CC[C@H](C(=O)Nc2cc3cc(-c4cnn(C)c4CN4CCCCC4)ccc3cn2)CC1 [Compound 795] has pEC50 at least equal to 6.
Met

pEC50 >= 6 for Cn1ncc(-c2ccc3cnc(NC(=O)C4CCOCC4)cc3c2)c1CO [Compound 984] ?
Not met

Decide: pEC50 of Cn1ncc(-c2ccc3cnc(NC(=O)[C@H]4CCCN4)cc3c2)c1CN1CCCCC1 [Compound 803] >= 6?
Not met

Quick check: does CN1CCC(C(=O)Nc2cc3cc(-c4cnn(C)c4)c(F)cc3cn2)CC1 [Compound 966] have pEC50 greater than or equal to 6?
Met

Could you please find out whether C[C@@H](C(=O)Nc1cc2cc(-c3cnn(C)c3)ccc2cn1)N1CCOCC1 [Compound 348] has pEC50 that meets 6 or exceeds it?
Not met

Hi, just wondering whether Cn1cc(-c2ccc3cnc(NC(=O)C4CC5(CCN(CCF)CC5)C4)cc3c2)cn1 [Compound 301] shows pEC50 of 6 or higher.
Met

Could you verify whether the entry Cc1nnc(-c2ccc3cnc(NC(=O)CN4CCN(C)CC4)cc3c2)s1 [Compound 946] shows pEC50 of no less than 6?
Met

New cases:
Please indicate if the recorded pEC50 for Cn1cc(-c2ccc3cnc(NC(=O)[C@H]4CCCN4)cc3c2)cn1 [Compound 320] meets or exceeds 6.
Met

Check if pEC50 >= 6 (inclusive). Item: C[C@@H]1COCCN1CC(=O)Nc1cc2cc(-c3cnn(C)c3)ccc2cn1 [Compound 342]
Not met

Could you please find out whether CC(C)N1CCC(C(=O)Nc2cc3cc(-c4cnn(C)c4)ccc3cn2)CC1 [Compound 75] has pEC50 that meets 6 or exceeds it?
Met
